# study.target: recombinant form of glutaminase (GAC Delta N2) (Homo sapiens, UniProt O94925)
# Sequence (O94925 137-598 isoform O94925-3 limits assumed): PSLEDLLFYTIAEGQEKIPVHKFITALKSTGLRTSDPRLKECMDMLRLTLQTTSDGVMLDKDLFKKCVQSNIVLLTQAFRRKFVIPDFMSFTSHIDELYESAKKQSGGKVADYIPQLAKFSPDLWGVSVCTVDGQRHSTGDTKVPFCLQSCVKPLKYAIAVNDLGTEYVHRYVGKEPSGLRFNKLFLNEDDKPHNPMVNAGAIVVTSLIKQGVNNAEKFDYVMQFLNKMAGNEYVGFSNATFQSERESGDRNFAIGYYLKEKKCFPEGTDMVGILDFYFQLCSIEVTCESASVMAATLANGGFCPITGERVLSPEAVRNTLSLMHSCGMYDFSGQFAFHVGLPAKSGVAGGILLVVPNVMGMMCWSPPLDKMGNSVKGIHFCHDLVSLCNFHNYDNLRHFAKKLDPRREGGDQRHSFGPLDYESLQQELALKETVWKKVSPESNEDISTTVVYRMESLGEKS
# protocol.summary: Modified Recombinant Enzyme Assay - Time Dependence
# protocol.conditions: 60 min preincubation
pIC50: −log10 of the molar value.
reported.metric: pIC50

Worked examples, 5 compounds total:
compound	pIC50
COc1cc(CC(=O)Nc2ccc(CCCCc3nnc(NC(=O)Cc4ccccn4)s3)nn2)cc(OC(F)(F)F)c1 [Compound 729]	7.80
O=C(Cc1cc(O)cc(OC(F)(F)F)c1)Nc1ccc(CCCCc2nnc(NC(=O)Cc3ccccn3)s2)nn1 [Compound 730]	7.89
CC(C)(C)OC(=O)Nc1cccc(CC(=O)Nc2nnc(CCCCc3ccc(NC(=O)Cc4cccc(OC(F)(F)F)c4)nn3)s2)n1 [Compound 724]	6.85
COc1ccc(CC(=O)Nc2ccc(CCCCc3nnc(NC(=O)Cc4ccccn4)s3)nn2)cc1OC(F)(F)F [Compound 722]	7.62
O=C(Cc1ccc(F)c(OC(F)(F)F)c1)Nc1ccc(CCCCc2nnc(NC(=O)Cc3ccccn3)s2)nn1 [Compound 719]	7.48

P = O=C(Cc1ccc(Cl)c(OC(F)(F)F)c1)Nc1ccc(CCCCc2nnc(NC(=O)Cc3ccccn3)s2)nn1 [Compound 721]
Q = O=C(Cc1cc(OC(F)(F)F)ccc1O)Nc1ccc(CCCCc2nnc(NC(=O)Cc3ccccn3)s2)nn1 [Compound 718]
I'd appreciate it if you could identify which of P and Q has the greater pIC50. Choose, then provide that item's label.
P
